Catalogue of melting point readings, one per entry.

compound: COc1ccc(-c2oc3ccc(CCO)cc3c2SC)cc1OC [Compound 39a]
melting point [°C]: 96
//
compound: COCCc1ccc2oc(-c3ccc(OCOC)c(OC)c3)c(SC)c2c1 [Compound 14a]
melting point [°C]: 70
//
compound: COc1ccc(-c2oc3ccc(CC(=O)N4CCN(Cc5ccccc5)CC4)cc3c2SC)cc1OC
melting point [°C]: 70
//
compound: COCCc1ccc2oc(-c3ccc(O)c(OC)c3)c(SC)c2c1 [Compound 15a]
melting point [°C]: 67
//
compound: COCCc1ccc2oc(-c3ccc(O)c(OC)c3)cc2c1 [Compound 16a]
melting point [°C]: 180
//
compound: COC(=O)Cc1ccc2oc(-c3ccc(OC)c(OC)c3)c(SC)c2c1 [Compound 31a]
melting point [°C]: 91
//
compound: COCCc1ccc2oc(-c3ccc(OC)c(OC)c3)cc2c1 [Compound 18a]
melting point [°C]: 81
//
compound: COc1ccc(-c2cc3cc(CCO)ccc3o2)cc1OC [Compound 40a]
melting point [°C]: 122
//
compound: COc1ccc(-c2oc3ccc(CC(=O)O)cc3c2SC)cc1OC [Compound 33a]
melting point [°C]: 165
//
compound: COCCc1ccc2oc(-c3ccc(OC)c(OC)c3)c(SC)c2c1 [Compound 17a]
melting point [°C]: 61
//
compound: COc1ccc(-c2oc3ccc(CC(=O)N4CCN(c5ccccc5)CC4)cc3c2SC)cc1OC [Compound 37a]
melting point [°C]: 160
//
compound: COc1ccc(-c2cc3cc(CC(=O)O)ccc3o2)cc1OC [Compound 34a]
melting point [°C]: 202
//
compound: COC(=O)Cc1ccc2oc(-c3ccc(OC)c(OC)c3)cc2c1 [Compound 32a]
melting point [°C]: 119
